Study Target: Neu5Ac(a2-6)GalNAc
Test Description: glycan array binding signal (z-score within array); higher = stronger binding
Condition Details: glycan notation: IUPAC condensed, linker removed
About 410 targets per protein were measured; listed, in parts, are those with the strongest signals and a random draw of the rest.
Parameter Measured: glycan array binding signal (z-score)

Binder | Parameter Measured | Test Result
RS2L (Ralstonia solanacearum), B5RXL5_RALSO (protein) MAQQGVFTLPANTSFGVTAFANAANTQTIQVLVDNVVKATFTGSGTSDKLLGSQVLNSGSGAIKIQVSVNGKPSDLVSNQTILANKLNFAMVGSEDGTDNDYNDGIAVLNWPLG | glycan array binding signal (z-score) | -0.244
AcfC (Vibrio cholerae), Q57410 (protein) MKSKNRFLLISLLSFSTSVFADVNLYGPGGPHVPLIKVAESFEKSQSKRVNITFGPQATWNDKAKKNADILFGASEHSALAIAEGHSERFSKFNIHPVFMREAIILVKKGNPKNIKGMADLLKPGIGIVVNDGAGVSNTSGTAVWEDSVGRMKNVEKLQAFRSNIHVFAPNSGSARKAFVDGEDIDAWITWVDWAIANPTIGDMVRMEDEYRIYRDFNVVLAKNPSSEAIDFFDYLTKSKDAEAIFQHYGWFK | glycan array binding signal (z-score) | -1.62
